- Assay summary: in vitro
- Experimental context: human, uninfected human foreskin fibroblasts (HFFs), Host viability (%) mean, preliminary screen, mean
Where a name gives a salt, the structure may show the parent alone.
Quantity name: viability at 72 h (%)
Answers are plain numbers, in %.

Consider the molecule shown here: CN1CCC(=C2c3ccccc3C=Cc3ccccc32)CC1 [Cyproheptadine HCl (Periactin)] What is its recorded viability at 72 h?
90.6

----------
- Assay summary: in vitro
- Experimental context: human
Structures can show the parent of a compound that is named as a salt.
Would you mind telling me the reported viability of each entry?
Answers are plain numbers, in %.

Examples from the recorded data:
Nc1nc(=O)c2c(CCc3ccc(C(=O)N[C@H](CCC(=O)O)C(=O)O)cc3)c[nH]c2[nH]1; 84.6
Cc1cccc(C(C)c2cnc[nH]2)c1C (stereo not drawn) [Medetomidine HCl, reference compound]; 90.5

Count: 7. Required value per item: viability.
1. Nc1ccn([C@@H]2O[C@@H](CO)[C@@H](O)C2(F)F)c(=O)n1 [Gemcitabine HCl (Gemzar)]
2. C[C@@H](Oc1cc(-c2cnn(C3CCNCC3)c2)cnc1N)c1c(Cl)ccc(F)c1Cl
3. CNC(=O)c1ccc(-c2cnc3ncc(Cc4ccc5ncccc5c4)n3n2)cc1F
4. C=C[C@H]1C[N@@]2CC[C@H]1C[C@H]2[C@H](O)c1ccnc2ccc(OC)cc12 [Quinine hydrochloride dihydrate]
5. CC[C@]12C=CCN3CCC4(c5cc([C@@]6(C(=O)OC)C[C@H]7C[C@@H](C(C)(F)F)CN(Cc8c6[nH]c6ccccc86)C7)c(OC)cc5N(C)[C@H]4[C@@](O)(C(=O)OC)[C@@H]1OC(C)=O)C32 (stereo in doubt) [Vinflunine Tartrate]
6. O=C1[C@@H]2[C@H]3CC[C@H](C3)[C@@H]2C(=O)N1C[C@@H]1CCCC[C@H]1CN1CCN(c2nsc3ccccc23)CC1 [Lurasidone HCl, reference compound]
7. COC(=O)N[C@H](C(=O)N[C@@H](Cc1ccccc1)[C@@H](O)CN(Cc1ccc(-c2ccccn2)cc1)NC(=O)[C@@H](NC(=O)OC)C(C)(C)C)C(C)(C)C [Atazanavir sulfate]

16.8
43.6
46.3
79.4
60.8
86.9
90.7
